Target: BV2523 (recombinant CoV S glycoprotein, BA.2) (SARS-CoV-2, UniProt P0DTC2 14-1273)
Test: hACE2 receptor inhibition ELISA on coated rS; competitor hACE2-His
measurement-kind: IC50 (µg/mL)
# output: bare number, implied unit µg/mL

Qu. Entry 35.13 (antibody, V domains shown) VH: QVQLQQSGAELGKPGASVKLSCRASGYTFTRYYIYWVKQRPGQGLEWIGEINPSNGDTHFNEKFKTKATLTVDKSSSSAHIHLTSLTSEDSAVYYCSIHAYSFDFWGQGTTLTVSS VL: EIQMTQSPSSMSASLGDRITITCQATQDIVKNLNWYQQKPGKPPSFLIYHATELAKGVPSRFSGSGSGSDYSLTISNLESEDFADYYCLQFYDFPFTFGAGTKLELKR needs its IC50 filled in; supply it.
Ans. 0.126

Qu. Entry 322.3 (antibody, V domains shown) VH: RVQLQQSGPELVKPGASVTISCKASGYIFTSDYIHWVKQRPGQGPEWIGWIYPGNINTKYNEKFKGKATLTADKSSSTAYMQLSSLTSEDSAVYFCARDDGNLYYYAMDYWGQGTSVTVSS VL: NIVLTQSPASLAVSLGQRATISCRASESVDSYGSSFMHWYQQKPGQPPKLLIYLASNLESGVPARFSGSGSRTDFTLTIDPVEADDAATYYCQQNNEDPRTFGGGTKLEIK needs its IC50 filled in; supply it.
Ans. 0.224

Qu. Entry 425.6 (antibody, V domains shown) VH: VQLKQSGPSLVQPSQSLSITCTVSGFSLTSYGIHWVRQSPGKGLEWLGVIWRGGSTDYNAAFMSRLTITKDNSKSQVFFKMNSLQADDTAIYYCATHTEGDDVDYWGQGTSVTVSS VL: QIVLTQSPAIMSVSPGEKVTMTCSASSTMSFMYWYQQKPGSSPRLLIYDTSNLASGVPVRFSGSGSGTSYSLTISRVEAEDAATYYCQQWNTYPLTFGAGTKLELKR needs its IC50 filled in; supply it.
Ans. 0.032
